Ref: the supplement of paper PMC11908140

B1: library; numbered along this chain (parent)
chain: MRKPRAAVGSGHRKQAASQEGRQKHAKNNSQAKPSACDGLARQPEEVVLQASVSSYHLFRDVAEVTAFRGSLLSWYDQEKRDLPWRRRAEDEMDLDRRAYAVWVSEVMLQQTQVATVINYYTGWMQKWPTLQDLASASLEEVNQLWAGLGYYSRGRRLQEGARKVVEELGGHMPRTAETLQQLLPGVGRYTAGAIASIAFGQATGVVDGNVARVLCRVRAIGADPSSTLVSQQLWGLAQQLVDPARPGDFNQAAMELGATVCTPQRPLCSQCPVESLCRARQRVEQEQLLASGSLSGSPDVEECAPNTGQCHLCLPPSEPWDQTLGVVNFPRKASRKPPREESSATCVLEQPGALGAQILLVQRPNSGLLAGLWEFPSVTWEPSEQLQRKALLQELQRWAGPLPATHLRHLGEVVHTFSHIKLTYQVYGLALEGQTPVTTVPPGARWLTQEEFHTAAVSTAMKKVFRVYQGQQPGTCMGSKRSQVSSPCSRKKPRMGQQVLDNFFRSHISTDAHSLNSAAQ

variants of: B1; assay: 8OG:A repair function score (normalized; synonymous = 0, nonsense = -1) (normalized log-likelihood score); higher = more repair activity (WT-like); settings: with 8OG:A DNA repair reporter (GFP) in HEK-293 MUTYH KO cells;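 note: cells sorted at 72 h after reporter transfection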
Classification field: enter met for 8OG:A repair function score values not below -0.05, not met for values below it.

>  <alteration>
G434T

>  <class.label>
met

$$$$
>  <alteration>
Q252E

>  <class.label>
not met

$$$$
>  <alteration>
E79F

>  <class.label>
met

$$$$
>  <alteration>
Q397I

>  <class.label>
not met

$$$$
>  <alteration>
T449P

>  <class.label>
not met

$$$$
>  <alteration>
W146V

>  <class.label>
not met

$$$$
>  <alteration>
V301D

>  <class.label>
not met

$$$$
>  <alteration>
F466D

>  <class.label>
not met

$$$$
>  <alteration>
A177H

>  <class.label>
not met

$$$$
>  <alteration>
V114W

>  <class.label>
not met

$$$$
>  <alteration>
L387A

>  <class.label>
not met

$$$$
>  <alteration>
S227P

>  <class.label>
not met

$$$$
>  <alteration>
I221T

>  <class.label>
not met

$$$$
>  <alteration>
Y121H

>  <class.label>
not met

$$$$
>  <alteration>
P331W

>  <class.label>
not met

$$$$
>  <alteration>
Q358I

>  <class.label>
not met

$$$$
>  <alteration>
A513C

>  <class.label>
met

$$$$
>  <alteration>
F250L

>  <class.label>
not met

$$$$
>  <alteration>
I421L

>  <class.label>
met

$$$$
>  <alteration>
R163P

>  <class.label>
not met

$$$$
>  <alteration>
S384D

>  <class.label>
met

$$$$
>  <alteration>
T324K

>  <class.label>
met

$$$$
>  <alteration>
Q271P

>  <class.label>
not met

$$$$
>  <alteration>
K422P

>  <class.label>
not met

$$$$
>  <alteration>
P365T

>  <class.label>
not met

$$$$
>  <alteration>
V274S

>  <class.label>
not met

$$$$
>  <alteration>
Q310V

>  <class.label>
met

$$$$
>  <alteration>
V53Y

>  <class.label>
met

$$$$
>  <alteration>
R157V

>  <class.label>
not met

$$$$
>  <alteration>
T179D

>  <class.label>
met

$$$$
>  <alteration>
G209K

>  <class.label>
not met

$$$$
>  <alteration>
T324S

>  <class.label>
met

$$$$
>  <alteration>
E319P

>  <class.label>
not met

$$$$
>  <alteration>
R88N

>  <class.label>
met

$$$$
>  <alteration>
Q111A

>  <class.label>
not met

$$$$
>  <alteration>
D77Y

>  <class.label>
met

$$$$
>  <alteration>
R281S

>  <class.label>
not met

$$$$
>  <alteration>
P316K

>  <class.label>
met

$$$$
>  <alteration>
E45D

>  <class.label>
met

$$$$
>  <alteration>
A177I

>  <class.label>
not met

$$$$
>  <alteration>
L83N

>  <class.label>
not met

$$$$
>  <alteration>
L131D

>  <class.label>
not met

$$$$
>  <alteration>
Q472S

>  <class.label>
met

$$$$
>  <alteration>
V230Y

>  <class.label>
not met

$$$$
>  <alteration>
R42E

>  <class.label>
met

$$$$
